target: Glucocorticoid receptor (Homo sapiens); assay: GR-EFC Redistribution (AID 451); conditions: CHO-K1 GR-EFC translocation, beta-gal luminescence, 2 h; note: potency is the fitted concentration of half-maximal effect
Active and inactive are the calls of the source. Calls come from the whole dose curve.

{"columns": ["chemical_smiles", "Potency"],
 "data": [
  ["CN[C@H]1[C@@H](O)[C@@H](NC)[C@@H]2O[C@@]3(O)C(=O)C[C@@H](C)O[C@H]3O[C@H]2[C@H]1O", "> 20.6 µM (inactive)"],
  ["N#Cc1cccc(-c2cncnc2-n2ccnc2)c1", "> 46 µM (inactive)"],
  ["Cc1cc2ccc(=O)oc2cc1OC[C@@H](O)C(C)(C)O", "> 46 µM (inactive)"],
  ["Cc1ccsc1/C=C\\C1=NCCCN1C", "> 20.6 µM (inactive)"],
  ["CNC[C@H](O)c1ccc(OC(=O)C(C)(C)C)c(OC(=O)C(C)(C)C)c1", "> 20.6 µM (inactive)"],
  ["C[C@H]1CS(=O)(=O)CCN1/N=C\\c1ccc([N+](=O)[O-])o1", "> 20.6 µM (inactive)"],
  ["CC[N+](CC)(CC)CC[C@](O)(c1ccccc1)C1CCCCC1", "> 20.6 µM (inactive)"],
  ["C[C@@]1(O)CCOC(=O)C1", "> 20.6 µM (inactive)"],
  ["Nc1ncnc2c1ncn2[C@@H]1O[C@H](COP(=O)(O)O)[C@@H](O)[C@@H]1O", "> 20.6 µM (inactive)"],
  ["Cn1nnnc1SCC1=C(C(=O)O)N2C(=O)[C@@H](NC(=O)[C@@H](O)c3ccccc3)[C@@H]2SC1", "> 20.6 µM (inactive)"]
]}
